Origin of the recorded values: ChEMBL document CHEMBL5303304

System: U2OS
Assay: Incucyte cell viability with U2OS; note: unitless GR value; below 1 slowed growth and below 0 cell loss
Assay type: toxicity, cell-based
Conditions: human, 6 h, 10 µM, compound concentration 10 uM, replicate number 1
Everything with Growth Rate lower than 0.5 is N; everything else, including exactly 0.5, is Y.

Please review the following examples before continuing.
[[record]]
compound = "CC(C)(C)c1cnc(CSc2cnc(NC(=O)C3CCN(CC(=O)NCCOCCOCCOCCNc4cccc5c4C(=O)N(C4CCC(=O)NC4=O)C5=O)CC3)s2)o1 (stereo unspecified)"
class_name = "N"

[[record]]
compound = "CCn1cnc2c(-c3ccc(F)c(-c4ccc(S(=O)(=O)CC)cc4OC)c3)cnnc21"
class_name = "N"

[[record]]
compound = "C=CC(=O)N1CCC[C@@H](n2nc(-c3ccc(Oc4ccccc4)cc3)c3c(N)ncnc32)C1"
class_name = "N"

[[record]]
compound = "C[C@@H]1OCC2(CCN(c3cnc(Sc4ccnc(N)c4Cl)c(N)n3)CC2)[C@@H]1N"
class_name = "N"

[[record]]
compound = "CN[C@@H](C)C(=O)N[C@H](C(=O)N1CCC[C@H]1C(=O)N[C@H]1c2ccccc2C[C@H]1OCC#CC#CCO[C@@H]1Cc2ccccc2[C@@H]1NC(=O)[C@@H]1CCCN1C(=O)[C@@H](NC(=O)[C@H](C)NC)C1CCCCC1)C1CCCCC1"
class_name = "Y"


Pending compound:
Problem: Threshold query (Growth Rate >= 0.5) on Cn1nccc1Nc1nccc(-c2cc3c(s2)C(C)(C)N(CCN2CCOCC2)C3=O)n1
Solution: N
